Reference for the values: patent US6358921B1

- Test system: C. xeroses
- Assay type: cell-based, Corynebacterium xerosis
For each entry below, report its Minimum Inhibitory Concentration (activity) value.
Give bare numbers, in µg/mL.

See these solved cases before continuing.
STRUCTURE_SMILES: CC(C)C[C@@H]1NC(=O)[C@H](CCCCN)NC(=O)[C@H](C(C)C)NC(=O)[C@@H]2CCCN2C(=O)[C@@H](Cc2ccc(O)cc2)NC(=O)[C@H](CC(C)C)NC(=O)[C@H](CCCCN)NC(=O)[C@H](C(C)C)NC(=O)[C@H](CCCCN)NC(=O)[C@H](CC(C)C)NC(=O)[C@@H]2CCCN2C(=O)[C@H](Cc2ccc(O)cc2)NC(=O)[C@H](C(C)C)NC(=O)[C@H](CCCCN)NC1=O
MEASURED_VALUE: 1
//
STRUCTURE_SMILES: CC(C)C[C@@H]1NC(=O)[C@H](CCCCN)NC(=O)[C@H](C(C)C)NC(=O)[C@@H]2CCCN2C(=O)[C@@H](Cc2ccc(O)cc2)NC(=O)[C@H](CC(C)C)NC(=O)[C@@H](CCCCN)NC(=O)[C@H](C(C)C)NC(=O)[C@H](CCCCN)NC(=O)[C@H](CC(C)C)NC(=O)[C@@H]2CCCN2C(=O)[C@@H](Cc2ccc(O)cc2)NC(=O)[C@H](C(C)C)NC(=O)[C@H](CCCCN)NC1=O
MEASURED_VALUE: 0.8
//
STRUCTURE_SMILES: CC(C)C[C@@H]1NC(=O)[C@H](CCCCN)NC(=O)[C@H](C(C)C)NC(=O)[C@H](CCCCN)NC(=O)[C@@H]2CCCN2C(=O)[C@@H](Cc2ccc(O)cc2)NC(=O)[C@H](CCCCN)NC(=O)[C@H](CC(C)C)NC(=O)[C@H](CCCCN)NC(=O)[C@H](C(C)C)NC(=O)[C@H](CCCCN)NC(=O)[C@@H]2CCCN2C(=O)[C@@H](Cc2ccc(O)cc2)NC(=O)[C@H](CCCCN)NC1=O
MEASURED_VALUE: 0.8
//
STRUCTURE_SMILES: CC(C)C[C@@H]1NC(=O)[C@H](CCCCN)NC(=O)[C@H](C(C)C)NC(=O)[C@H](CCCCN)NC(=O)[C@H](CC(C)C)NC(=O)[C@@H]2CCCN2C(=O)[C@@H](Cc2ccc(O)cc2)NC(=O)[C@H](C(C)C)NC(=O)[C@H](CCCCN)NC(=O)[C@@H](CC(C)C)NC(=O)[C@H](CCCCN)NC(=O)[C@H](C(C)C)NC(=O)[C@@H]2CCCN2C(=O)[C@@H](Cc2ccc(O)cc2)NC1=O
MEASURED_VALUE: 0.8

Okay, now this compound:
[ask] Can you look up the measured Minimum Inhibitory Concentration (activity) of `CC(C)C[C@@H]1NC(=O)[C@H](C(C)C)NC(=O)[C@H](CC(C)C)NC(=O)[C@@H]2CCCN2C(=O)[C@@H](Cc2ccc(O)cc2)NC(=O)[C@H](C(C)C)NC(=O)[C@H](CC(C)C)NC(=O)[C@H](C(C)C)NC(=O)[C@H](CCCCN)NC(=O)[C@H](CCCCN)NC(=O)[C@@H]2CCCN2C(=O)[C@@H](Cc2ccc(O)cc2)NC(=O)[C@H](CCCCN)NC(=O)[C@H](CCCCN)NC1=O` for me?
[reply] 1.2
